Target: T1, MPP7, Q5T2T1
T1 sequence (Q5T2T1 134-230, limits assumed, looked up): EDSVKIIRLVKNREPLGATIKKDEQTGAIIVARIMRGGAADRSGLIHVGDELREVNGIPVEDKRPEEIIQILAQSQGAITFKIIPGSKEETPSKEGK
Assay: holdup assay
Set-up: key: below the threshold = too weak to quantify, mostly under pKd 3.1 to 4
Settings: plain residues with an end cap or a label only (N-terminal biotin on a linker: ado-ado)
observable: pKd

Examples with answers:
{"binder": "EDLTKNHDEL [RCN1, Q15293]", "observable": "pKd", "value": "below the threshold"}
{"binder": "QKNKDKEYYV [NRXN3_rs746444206, Q9Y4C0]", "observable": "pKd", "value": 4.79}
{"binder": "GFGEERESIL [KIDINS220, Q9ULH0]", "observable": "pKd", "value": "below the threshold"}
{"binder": "FVHPILQSAV [PRKCA, P17252]", "observable": "pKd", "value": "below the threshold"}
{"binder": "TETASVCTKV [SLC23A1, Q9UHI7]", "observable": "pKd", "value": "below the threshold"}

## Input Complete the entry with pKd for EEPEERHTEL [CES2, O00748]
## Output 3.79
